Target: Mouse talin-1 F2F3 domains (196-400) with the L353F mutation (mouse, UniProt P26039 196-400, L353F)
Sequence (P26039 196-400 L353F): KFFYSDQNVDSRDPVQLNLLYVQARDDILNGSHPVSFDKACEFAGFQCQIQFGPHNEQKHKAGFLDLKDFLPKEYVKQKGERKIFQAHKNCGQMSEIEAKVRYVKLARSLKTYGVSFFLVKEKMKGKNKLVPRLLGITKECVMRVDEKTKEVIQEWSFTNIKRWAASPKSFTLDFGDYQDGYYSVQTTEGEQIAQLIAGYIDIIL
Assay: FP
Measure name: pKd
Schema: pKd number; meaning minus log10 of the concentration expressed in molar units.

Query :: Write down pKd measured for item CKLLMIIHDRREFAKFEKEKMNAKWDTGENPIYKSAVTTVVNPKYEGK (maleimide-fluorescein dye coupled to the peptide (non-native N-terminal cysteine), non-native N-terminal cysteine; integrin β1A cytoplasmic tail, UniProt P05556, residues 752-798; also called β1 integrin peptide; source: synthetic peptide (GLBiochem, Shanghai))
Result :: 4.00
